target_under_test: BTK (Homo sapiens, UniProt Q06187)
Sequence (Q06187 whole entry): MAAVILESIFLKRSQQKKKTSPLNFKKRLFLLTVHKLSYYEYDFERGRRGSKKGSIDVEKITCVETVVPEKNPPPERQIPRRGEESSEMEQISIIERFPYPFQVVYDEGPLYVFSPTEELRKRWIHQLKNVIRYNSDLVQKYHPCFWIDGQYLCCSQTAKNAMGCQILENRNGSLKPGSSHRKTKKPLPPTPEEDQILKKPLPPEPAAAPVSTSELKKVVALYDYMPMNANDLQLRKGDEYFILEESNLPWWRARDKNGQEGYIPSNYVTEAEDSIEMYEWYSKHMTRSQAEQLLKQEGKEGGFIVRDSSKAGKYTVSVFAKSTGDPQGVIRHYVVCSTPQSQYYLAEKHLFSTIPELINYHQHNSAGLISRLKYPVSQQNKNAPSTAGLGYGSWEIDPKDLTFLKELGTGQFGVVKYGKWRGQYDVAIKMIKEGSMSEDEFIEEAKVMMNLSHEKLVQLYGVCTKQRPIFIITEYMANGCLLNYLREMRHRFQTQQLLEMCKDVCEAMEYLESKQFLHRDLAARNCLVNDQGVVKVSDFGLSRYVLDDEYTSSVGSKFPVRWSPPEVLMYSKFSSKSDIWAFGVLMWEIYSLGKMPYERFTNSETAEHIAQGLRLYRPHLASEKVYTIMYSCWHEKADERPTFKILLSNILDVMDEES
protocol: Degradation of BTK protein in Namalwa cells (Western blot; DC50, Dmax)
study_conditions: BTK degradation; cell line not given
readout_name: DC50

A selection of reference data follows.
INSERT INTO measurements (compound, recorded_result) VALUES
  ('NC(=O)c1c(-c2ccc(Oc3ccccc3)cc2)nn2c1NCCC2C1CCN(CC2CCN(C(=O)N3CCC(CN4CCN(c5ccc6c(c5)CN(C5CCC(=O)NC5=O)C6=O)CC4)CC3)CC2)CC1 (stereo not drawn)', '< 10 nM'),
  ('Nc1ncnc2c1c(-c1ccc(Oc3ccccc3)cc1)nn2C1CCN(C2CCN(C(=O)N3CCC(N4CCN(c5ccc6c(c5)C(=O)N(C5CCC(=O)NC5=O)C6=O)CC4)CC3)CC2)CC1 (stereo not drawn)', '10 to 50 nM');

NC(=O)c1c(-c2ccc(Oc3ccccc3)cc2)nn2c1NCCC2C1CCN(CC2CCN(C(=O)N3CCC(C4CCN(c5ccc6c(c5)CN(C5CCC(=O)NC5=O)C6=O)CC4)CC3)CC2)CC1 (stereo not drawn) yielded DC50 of < 10 nM

NC(=O)c1c(-c2ccc(Oc3ccccc3)cc2)nn2c1NCCC2C1CCN(CCOCCOCCN2CCN(c3ccc4c(c3)CN(C3CCC(=O)NC3=O)C4=O)CC2)CC1 (stereo not drawn) yielded DC50 of 10 to 50 nM

Nc1ncnc2c1c(-c1ccc(Oc3ccccc3)cc1)nn2[C@@H]1CCCN(C2CCN(C(=O)N3CCC(CCCN4CCC(c5ccc6c(c5)CN(C5CCC(=O)NC5=O)C6=O)CC4)CC3)CC2)C1 (stereo partly drawn) yielded DC50 of 10 to 50 nM

NC(=O)c1c(-c2ccc(Oc3ccccc3)cc2)nn2c1NCCC2C1CCN(C(=O)N2CCC(CN3CCC(c4ccc5c(c4)CN(C4CCC(=O)NC4=O)C5=O)CC3)CC2)CC1 (stereo not drawn) yielded DC50 of < 10 nM
